Molecular target: T1, human CD86-murine Ig fusion protein (human)
T1 construct: Bought (Ancell #509-820); also called hCD86-mIg
T1 chain: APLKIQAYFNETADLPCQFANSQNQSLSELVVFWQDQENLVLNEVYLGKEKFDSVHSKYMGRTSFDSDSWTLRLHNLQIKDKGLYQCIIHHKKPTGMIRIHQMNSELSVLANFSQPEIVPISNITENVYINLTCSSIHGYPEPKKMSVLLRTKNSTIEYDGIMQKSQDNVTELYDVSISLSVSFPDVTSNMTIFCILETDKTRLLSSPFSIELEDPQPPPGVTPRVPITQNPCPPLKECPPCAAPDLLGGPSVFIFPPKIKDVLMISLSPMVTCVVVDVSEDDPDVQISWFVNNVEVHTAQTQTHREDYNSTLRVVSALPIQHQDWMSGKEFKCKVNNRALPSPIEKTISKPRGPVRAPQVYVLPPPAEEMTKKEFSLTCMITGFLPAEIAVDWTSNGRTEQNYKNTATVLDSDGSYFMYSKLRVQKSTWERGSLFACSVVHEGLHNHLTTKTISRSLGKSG
Assay: SPR Biacore, hCD86-mIg captured
MEASURED_PARAMETER: Kd

D3-12-IgG2 (Fc fusion) MHVAQPAVVLASSRGIASFVCEYESPGKANEIRVTVLRQAGSQVTEVCAMTYMKGDELTFLDDPSCTGTFSGNQVNLTIQGLRAADTGLYICKVELMYPPPYYLGIGNGTQIYVIDPEPCPDSDERKCCVECPPCPAPPVAGPSVFLFPPKPKDTLMISRTPEVTCVVVDVSHEDPEVQFNWYVDGVEVHNAKTKPREEQFNSTFRVVSVLTVVHQDWLNGKEYKCKVSNKGLPAPIEKTISKTKGQPREPQVYTLPPSREEMTKNQVSLTCLVKGFYPSDIAVEWESNGQPENNYKTTPPMLDSDGSFFLYSKLTVDKSRWQQGNVFSCSVMHEALHNHYTQKSLSLSPG	< 0.131 nM
D29-IgG2 (Fc fusion) MHVAQPAVVLASSRGIASFVCEYEAPHKADEIRVTVLRKADSQVTEVCAMTYMMEDELTFLDDPSCTGTFSGNQVNLTIQGLRAMDTGLYICKVELMYPPPYYLGLGNGTQIYVIDPEPCPDSDERKCCVECPPCPAPPVAGPSVFLFPPKPKDTLMISRTPEVTCVVVDVSHEDPEVQFNWYVDGVEVHNAKTKPREEQFNSTFRVVSVLTVVHQDWLNGKEYKCKVSNKGLPAPIEKTISKTKGQPREPQVYTLPPSREEMTKNQVSLTCLVKGFYPSDIAVEWESNGQPENNYKTTPPMLDSDGSFFLYSKLTVDKSRWQQGNVFSCSVMHEALHNHYTQKSLSLSPG	< 0.131 nM
D3-14-IgG2 (Fc fusion) MHVAQPAVVLASSRGIASFVCEYESPGKANEIRVTVLRQADSQVTEVCAMTYMKGDELTFLDDPSCTGTFSGNQVNLTIQGLRAADTGLYICKVELMYPPPYYLGIGNGTQIYVIDPEPCPDSDERKCCVECPPCPAPPVAGPSVFLFPPKPKDTLMISRTPEVTCVVVDVSHEDPEVQFNWYVDGVEVHNAKTKPREEQFNSTFRVVSVLTVVHQDWLNGKEYKCKVSNKGLPAPIEKTISKTKGQPREPQVYTLPPSREEMTKNQVSLTCLVKGFYPSDIAVEWESNGQPENNYKTTPPMLDSDGSFFLYSKLTVDKSRWQQGNVFSCSVMHEALHNHYTQKSLSLSPG	< 0.131 nM
D1T-IgG2 (Fc fusion) MHVAQPAVVLASSRGIASFVCEYESPHKANEIRVTVLRQANSQVTEVCAMTYMKGDELTFLDDPFCTGTFSGNQVNLTIQGLRAADTGLYICKVELMYPPPYYLGIGNGTQIYVIDPEPCPDSDERKCCVECPPCPAPPVAGPSVFLFPPKPKDTLMISRTPEVTCVVVDVSHEDPEVQFNWYVDGVEVHNAKTKPREEQFNSTFRVVSVLTVVHQDWLNGKEYKCKVSNKGLPAPIEKTISKTKGQPREPQVYTLPPSREEMTKNQVSLTCLVKGFYPSDIAVEWESNGQPENNYKTTPPMLDSDGSFFLYSKLTVDKSRWQQGNVFSCSVMHEALHNHYTQKSLSLSPG	0.262 to 0.523 nM

Reported Kd for D3-31-IgG2 (Fc fusion) MHVAQPAVVLASSRGIASFVCEYESPGKANEIRVTVLRQADSQVTEVCAMTYMKEDELTFLDDPSCTGTFSGNQVNLTIQGLRAADTGLYICKVELMYPPPYYLGIGNGTQIYVIDPEPCPDSDERKCCVECPPCPAPPVAGPSVFLFPPKPKDTLMISRTPEVTCVVVDVSHEDPEVQFNWYVDGVEVHNAKTKPREEQFNSTFRVVSVLTVVHQDWLNGKEYKCKVSNKGLPAPIEKTISKTKGQPREPQVYTLPPSREEMTKNQVSLTCLVKGFYPSDIAVEWESNGQPENNYKTTPPMLDSDGSFFLYSKLTVDKSRWQQGNVFSCSVMHEALHNHYTQKSLSLSPG : what is it?
< 0.131 nM
